experiment notes: Prevention of seizures induced by loud -high frequency sounds in the DBA/2 mouse after 20 mg/kg ip administration
Format: functional
settings: route intraperitoneal
Classification field: Met = inhibition in vivo at 20 mg/kg at or over 70%; Not met = inhibition in vivo at 20 mg/kg under 70%.

Consider the following illustrative entries.
NC(=Nc1ccc(Oc2ccccc2)cc1)Nc1ccc(Oc2ccccc2)cc1; Not met
CC(C)c1ccc(NC(=N)Nc2ccc(C(C)C)cc2)cc1; Met
Cc1ccc(N=C(N)Nc2ccc(C)cc2)cc1; Not met
COc1ccc(/N=C(\N)Nc2ccc3c4c(cccc24)CC3)c2ccccc12; Not met
CCc1ccc(NC(=N)Nc2ccc(CC)cc2)cc1; Met

# check: inhibition in vivo at 20 mg/kg of "CCCCOc1ccc(NC(=N)Nc2ccc(CCCCO)cc2)cc1" is greater than or equal to 70% Not met

# check: inhibition in vivo at 20 mg/kg of CN1CCN(c2ncc(-c3cc(Cl)cc(Cl)c3Cl)c(N)n2)CC1 [SIPATRIGINE] is greater than or equal to 70% Not met

# check: inhibition in vivo at 20 mg/kg of Nc1nc2ccc(OC(F)(F)F)cc2s1 [RILUZOLE] is greater than or equal to 70% Met

# check: inhibition in vivo at 20 mg/kg of "CCCCc1ccc(NC(N)=Nc2ccc(OCc3ccccc3)cc2)cc1" is greater than or equal to 70% Not met

----------
target: Sodium channel protein type 2 subunit alpha (Rattus norvegicus)
experiment notes: Sodium channel block, determined by % block of [14C]guanidinium flux in CHO line expressing rat type IIA sodium channels derived from rat brain
measured attribute: pIC50
API: returns pIC50 as number; meaning -log10 of concentration in mol/L.

Known pIC50 results, listed for orientation:
CC(C)c1ccc(NC(=N)Nc2ccc(C(C)C)cc2)cc1; 6.34
NC(=Nc1ccc(Oc2ccccc2)cc1)Nc1ccc(Oc2ccccc2)cc1; 6.37

Consider the molecule "CC(C)(C)c1ccc(NC(=N)Nc2ccc(C(C)(C)C)cc2)cc1" and give its recorded pIC50. 5.81

Consider the molecule "Cc1ccc(N=C(N)Nc2ccc(C)cc2)cc1" and give its recorded pIC50. 5.04

Consider the molecule "CC(C)(C)c1ccc(NC(=N)Nc2ccc(OCc3ccccc3)cc2)cc1" and give its recorded pIC50. 6.96

Consider the molecule "CCCCOc1ccc(NC(=N)Nc2ccc(CCCCO)cc2)cc1" and give its recorded pIC50. 5.75

Consider the molecule CCC(C)c1ccc(NC(N)=Nc2ccc3c4c(cccc24)CC3)cc1 (stereo unspecified) and give its recorded pIC50. 6.17

----------
experiment notes: physchem
settings: octanol/15 mM HEPES/135 mM NaCl, pH 7.4
Description: Partition coefficient (logD7.4) (octanol/15 mM HEPES/135 mM NaCl at pH 7.4)
measured attribute: logD
I'd appreciate a reply containing only the number, no unit.

Known logD results, listed for orientation:
CC(C)(C)c1ccc(NC(=N)Nc2ccc(C(C)(C)C)cc2)cc1; 3.65
CCCCOc1ccc(NC(=N)Nc2ccc(CCCCO)cc2)cc1; 1.72

Consider the compound "CCCCOc1ccc(N=C(N)Nc2ccc(OCCCC)cc2)cc1" and give its recorded logD. 3.52

Consider the compound "Cc1ccc(N=C(N)Nc2ccc(C)cc2)cc1" and give its recorded logD. 0.7

Consider the compound "CCc1ccc(NC(=N)Nc2ccc(CC)cc2)cc1" and give its recorded logD. 1.7

Consider the compound "NC(=Nc1ccc(Oc2ccccc2)cc1)Nc1ccc(Oc2ccccc2)cc1" and give its recorded logD. 3.55

----------
target: Sodium channel protein type 2 subunit alpha (Rattus norvegicus, UniProt P04775)
Sequence (P04775 whole entry): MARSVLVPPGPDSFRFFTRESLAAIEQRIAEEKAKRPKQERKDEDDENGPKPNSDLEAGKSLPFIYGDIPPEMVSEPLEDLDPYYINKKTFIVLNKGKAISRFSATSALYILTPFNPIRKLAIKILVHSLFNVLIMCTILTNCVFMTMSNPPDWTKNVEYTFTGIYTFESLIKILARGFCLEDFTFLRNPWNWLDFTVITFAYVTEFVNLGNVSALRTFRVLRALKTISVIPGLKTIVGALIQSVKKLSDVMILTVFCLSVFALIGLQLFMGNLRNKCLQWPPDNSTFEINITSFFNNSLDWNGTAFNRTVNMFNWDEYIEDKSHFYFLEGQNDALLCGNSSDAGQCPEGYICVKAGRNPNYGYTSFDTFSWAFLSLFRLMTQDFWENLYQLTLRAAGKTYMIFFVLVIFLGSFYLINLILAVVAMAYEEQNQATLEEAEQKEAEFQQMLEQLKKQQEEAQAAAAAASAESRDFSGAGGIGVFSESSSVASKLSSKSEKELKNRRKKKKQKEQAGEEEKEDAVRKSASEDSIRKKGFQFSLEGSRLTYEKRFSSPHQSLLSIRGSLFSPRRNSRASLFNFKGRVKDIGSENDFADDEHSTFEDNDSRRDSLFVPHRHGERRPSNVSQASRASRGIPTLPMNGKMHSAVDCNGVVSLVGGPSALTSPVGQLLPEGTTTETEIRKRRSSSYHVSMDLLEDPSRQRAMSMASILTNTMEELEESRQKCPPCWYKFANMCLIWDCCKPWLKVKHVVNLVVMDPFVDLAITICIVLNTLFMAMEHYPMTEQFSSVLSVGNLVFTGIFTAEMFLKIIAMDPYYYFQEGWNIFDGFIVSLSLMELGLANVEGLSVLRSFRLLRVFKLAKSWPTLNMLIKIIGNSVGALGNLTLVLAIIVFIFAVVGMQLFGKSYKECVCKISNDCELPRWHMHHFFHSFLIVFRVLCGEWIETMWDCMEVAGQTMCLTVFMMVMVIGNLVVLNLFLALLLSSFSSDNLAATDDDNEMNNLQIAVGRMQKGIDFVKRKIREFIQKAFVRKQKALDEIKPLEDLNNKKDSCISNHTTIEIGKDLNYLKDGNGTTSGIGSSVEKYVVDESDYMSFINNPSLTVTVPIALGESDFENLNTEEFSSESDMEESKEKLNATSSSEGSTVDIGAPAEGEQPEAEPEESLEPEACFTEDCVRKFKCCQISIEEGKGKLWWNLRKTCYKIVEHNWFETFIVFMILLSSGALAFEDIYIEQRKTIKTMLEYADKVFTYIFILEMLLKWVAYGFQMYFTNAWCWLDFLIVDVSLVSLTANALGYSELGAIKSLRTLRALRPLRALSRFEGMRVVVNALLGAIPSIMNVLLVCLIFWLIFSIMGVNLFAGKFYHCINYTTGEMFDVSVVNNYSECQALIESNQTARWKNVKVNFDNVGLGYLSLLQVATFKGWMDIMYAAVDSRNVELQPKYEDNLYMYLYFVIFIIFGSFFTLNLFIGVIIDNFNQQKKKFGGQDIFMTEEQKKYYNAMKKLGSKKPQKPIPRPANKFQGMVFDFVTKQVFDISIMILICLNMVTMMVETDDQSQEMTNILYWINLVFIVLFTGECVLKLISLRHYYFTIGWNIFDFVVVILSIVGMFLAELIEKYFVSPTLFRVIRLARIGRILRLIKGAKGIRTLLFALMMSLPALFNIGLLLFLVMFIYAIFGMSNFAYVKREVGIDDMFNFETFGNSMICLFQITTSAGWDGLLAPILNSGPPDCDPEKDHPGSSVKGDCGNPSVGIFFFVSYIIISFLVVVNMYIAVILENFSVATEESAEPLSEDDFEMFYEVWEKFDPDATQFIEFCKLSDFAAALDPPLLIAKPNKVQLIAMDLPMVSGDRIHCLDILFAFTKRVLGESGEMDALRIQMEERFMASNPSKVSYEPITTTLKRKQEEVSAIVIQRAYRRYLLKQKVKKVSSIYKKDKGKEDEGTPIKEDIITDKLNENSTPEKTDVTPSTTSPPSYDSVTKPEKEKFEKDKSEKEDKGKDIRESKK
experiment notes: Sodium channel block, determined by % block of [14C]guanidinium flux in CHO line expressing rat type IIA sodium channels derived from rat brain
Listing of entries alongside the reported pIC50.
API: returns pIC50 as number; meaning -log10 of concentration in mol/L.

Consider the compound "NC(=Nc1ccc(-c2ccccc2)cc1)Nc1ccc(-c2ccccc2)cc1" and give its recorded pIC50. 6.07

Consider the compound "CCCCCCc1ccc(N=C(N)Nc2ccc(CCCCCC)cc2)cc1" and give its recorded pIC50. 6.08

Consider the compound "CCc1ccc(NC(=N)Nc2ccc(CC)cc2)cc1" and give its recorded pIC50. 5.86

Consider the compound "CCCCc1ccc(N=C(N)Nc2ccc(CCCC)cc2)cc1" and give its recorded pIC50. 6.89

----------
experiment notes: Prevention of seizures induced by loud -high frequency sounds in the DBA/2 mouse after 20 mg/kg ip administration
Format: functional
settings: route intraperitoneal
Listing of entries alongside the reported inhibition in vivo at 20 mg/kg.
Field: numeric (%). Do not append units.

Known inhibition in vivo at 20 mg/kg results, listed for orientation:
CCCCOc1ccc(N=C(N)Nc2ccc(OCCCC)cc2)cc1; 52
CCCCCCc1ccc(N=C(N)Nc2ccc(CCCCCC)cc2)cc1; 79
NC(=Nc1ccc(CCCCO)cc1)Nc1ccc(CCCCO)cc1; 0

Consider the molecule "CC(C)(C)c1ccc(NC(=N)Nc2ccc(OCc3ccccc3)cc2)cc1" and give its recorded inhibition in vivo at 20 mg/kg. 27

Consider the molecule "CC(C)(C)c1ccc(NC(=N)Nc2ccc(C(C)(C)C)cc2)cc1" and give its recorded inhibition in vivo at 20 mg/kg. 60

Consider the molecule CCC(C)c1ccc(NC(N)=Nc2ccc3c4c(cccc24)CC3)cc1 (stereo unspecified) and give its recorded inhibition in vivo at 20 mg/kg. 33

----------
experiment notes: physchem
settings: octanol/15 mM HEPES/135 mM NaCl, pH 7.4
measured attribute: logD
I'd appreciate a reply containing only the number, no unit.

Consider the molecule CN1CCN(c2ncc(-c3cc(Cl)cc(Cl)c3Cl)c(N)n2)CC1 [SIPATRIGINE] and give its recorded logD. 3.39

Consider the molecule "NC(=Nc1ccc(-c2ccccc2)cc1)Nc1ccc(-c2ccccc2)cc1" and give its recorded logD. 3.13

Consider the molecule "COc1ccc(/N=C(\N)Nc2ccc3c4c(cccc24)CC3)c2ccccc12" and give its recorded logD. 2.7

Consider the molecule "CCCCc1ccc(N=C(N)Nc2ccc(CCCC)cc2)cc1" and give its recorded logD. 4.1

Consider the molecule CCC(C)c1ccc(NC(=N)Nc2ccc(C(C)CC)cc2)cc1 (stereo unspecified) and give its recorded logD. 3.94

Consider the molecule CCC(C)c1ccc(NC(N)=Nc2ccc3c4c(cccc24)CC3)cc1 (stereo unspecified) and give its recorded logD. 3.31

Consider the molecule "CCCCCCc1ccc(N=C(N)Nc2ccc(CCCCCC)cc2)cc1" and give its recorded logD. 6.07

----------
Listing of entries alongside the reported pIC50.
target: Glutamate NMDA receptor
experiment notes: Displacement of [3H]MK-801 from rat brain membrane N-methyl-D-aspartate glutamate receptor
API: returns pIC50 as number; meaning -log10 of concentration in mol/L.

CCC(C)c1ccc(NC(=N)Nc2ccc(C(C)CC)cc2)cc1 (stereo unspecified); 5.00
CCCCOc1ccc(N=C(N)Nc2ccc(OCCCC)cc2)cc1; 5.46

Consider the compound "CCCCc1ccc(NC(N)=Nc2ccc(OCc3ccccc3)cc2)cc1" and give its recorded pIC50. 5.40

Consider the compound "CCc1ccc(NC(=N)Nc2ccc(CC)cc2)cc1" and give its recorded pIC50. 5.10

----------
Listing of entries alongside the reported pIC50.
target: Sodium channel protein type 2 subunit alpha (Rattus norvegicus, UniProt P04775)
experiment notes: Sodium channel block, determined by % block of [14C]guanidinium flux in CHO line expressing rat type IIA sodium channels derived from rat brain
API: returns pIC50 as number; meaning -log10 of concentration in mol/L.

Known pIC50 results, listed for orientation:
NC(=Nc1ccc(Sc2ccccc2)cc1)Nc1ccc(Sc2ccccc2)cc1; 6.08
NC(=Nc1ccc(CCCCO)cc1)Nc1ccc(CCCCO)cc1; 5.09
CCCCOc1ccc(N=C(N)Nc2ccc(OCCCC)cc2)cc1; 6.72

Could you now consider this next compound?
Recall the reported pIC50 of "CCCCc1ccc(NC(N)=Nc2ccc(OCc3ccccc3)cc2)cc1" on Sodium channel protein type 2 subunit alpha (Rattus norvegicus, UniProt P04775) and write it down. 6.85

----------
experiment notes: physchem
settings: octanol/15 mM HEPES/135 mM NaCl, pH 7.4
measured attribute: logD
I'd appreciate a reply containing only the number, no unit.

Known logD results, listed for orientation:
NC(=Nc1ccc(CCCCO)cc1)Nc1ccc(CCCCO)cc1; 0.047
NC(=Nc1ccc(Sc2ccccc2)cc1)Nc1ccc(Sc2ccccc2)cc1; 4.18
CC(C)(C)c1ccc(NC(=N)Nc2ccc(OCc3ccccc3)cc2)cc1; 3.46

Could you now consider this next compound?
Consider the compound "CC(C)c1ccc(NC(=N)Nc2ccc(C(C)C)cc2)cc1" and give its recorded logD. 2.72

----------
target: Glutamate NMDA receptor
experiment notes: Displacement of [3H]MK-801 from rat brain membrane N-methyl-D-aspartate glutamate receptor
Listing of entries alongside the reported pIC50.
API: returns pIC50 as number; meaning -log10 of concentration in mol/L.

Known pIC50 results, listed for orientation:
COc1ccc(/N=C(\N)Nc2ccc3c4c(cccc24)CC3)c2ccccc12; 5.60
CCCCCCc1ccc(N=C(N)Nc2ccc(CCCCCC)cc2)cc1; 5.11
CC(C)c1ccc(NC(=N)Nc2ccc(C(C)C)cc2)cc1; 4.75
CCCCc1ccc(N=C(N)Nc2ccc(CCCC)cc2)cc1; 5.48
CC(C)(C)c1ccc(NC(=N)Nc2ccc(OCc3ccccc3)cc2)cc1; 5.66

Consider the compound "Cc1ccc(N=C(N)Nc2ccc(C)cc2)cc1" and give its recorded pIC50. 4.99
